# Test system: P-glycoprotein
# test.name: [125I]iodomycin photolabelling of Pgp in EHR2/DNR+ cells
# Assay type: binding, mice
# test.conditions: 20 µM drug, iodomycin 10 nM
measure.name: Per cent inhibition of [125I]iodomycin photolabelling of Pgp (%)
Respond numerically; units are % and should not be typed.

COc1cccc2c1C(=O)c1c(O)c3c(c(O)c1C2=O)C[C@@](O)(C(C)=O)C[C@@H]3O[C@H]1C[C@H](N)[C@H](O)[C@H](C)O1 [Daunorubicin] = 82.7
COc1cccc2c1C(=O)c1c(O)c3c(c(O)c1C2=O)C[C@@](O)(C(=O)CO)C[C@@H]3O[C@H]1C[C@H](N)[C@H](O)[C@H](C)O1 [Doxorubicin] = 0

Then this molecule:
Task: For the molecule shown here, O=C1c2c(O)ccc(O)c2C(=O)c2c(NCCNCCO)ccc(NCCNCCO)c21 [Mitoxantrone] , give the reported Per cent inhibition of [125I]iodomycin photolabelling of Pgp.
Result: 56.9
